assay: qHTS assay for identifying genotoxic compounds that show differential cytotoxicity against isogenic chicken DT40 cell lines with known DNA damage response pathways - Rev3 mutant cell line (AID 743014); settings: chicken DT40 Rev3-/- viability, CellTiter-Glo, 40 h; series mostly up to 68.4 µM; further: nearly all actives have a fitted effect of over 55% in size
Inconclusive results are not listed. Activity calls are given as the source filed them. The call rests on the fitted dose curve; in most records, active means well fitted cell-killing curve with a large enough effect in the repeat runs; inconclusive means weak or mixed curves, or effect the other way; inactive means no such curve, though single readings can be large or run the other way.
Labels: true (1) for active, false (0) for inactive

{"MOLECULE": "CC(C)CCOCc1ccccc1", "CLASS": "false (0)"}
{"MOLECULE": "Cc1ccnc2c1NC(=O)c1cccnc1N2C1CC1", "CLASS": "false (0)"}
{"MOLECULE": "O=C(OCc1ccccc1)c1ccc(O)cc1", "CLASS": "false (0)"}
{"MOLECULE": "Cc1cccc(O)c1C", "CLASS": "false (0)"}
{"MOLECULE": "OCCOCCN1CCN(C(c2ccccc2)c2ccc(Cl)cc2)CC1 (centres undefined)", "CLASS": "true (1)"}
{"MOLECULE": "O=C1OC2(c3ccc(O)cc3Oc3cc(O)ccc32)c2ccccc21", "CLASS": "false (0)"}
{"MOLECULE": "COC(c1ccccc1)(c1ccccc1)[C@H](Oc1nc(C)cc(C)n1)C(=O)O", "CLASS": "false (0)"}
{"MOLECULE": "CC(C)(C)c1ccccc1", "CLASS": "false (0)"}
{"MOLECULE": "CC(=O)CC(C)=O", "CLASS": "false (0)"}
{"MOLECULE": "C/C=C/c1ccc(OCC)c(O)c1", "CLASS": "false (0)"}
{"MOLECULE": "CC1COC(=O)O1 (centres undefined)", "CLASS": "false (0)"}
{"MOLECULE": "O=C(Oc1ccccc1)c1ccccc1O", "CLASS": "false (0)"}
{"MOLECULE": "CCN(CC)C(=O)Nc1ccc(OCC(O)CNC(C)(C)C)c(C(C)=O)c1 (centres undefined)", "CLASS": "false (0)"}
{"MOLECULE": "O=C1Nc2ccccc2C1(c1ccc(O)cc1)c1ccc(O)cc1", "CLASS": "true (1)"}
{"MOLECULE": "Oc1c(Cl)cc(Cl)cc1Sc1cc(Cl)cc(Cl)c1O", "CLASS": "true (1)"}
{"MOLECULE": "C=CS(=O)(=O)O", "CLASS": "false (0)"}
{"MOLECULE": "CC[C@@H](N)CO", "CLASS": "false (0)"}
{"MOLECULE": "CC(C)(C)c1cc(C(C)(C)C)c(O)c(C(C)(C)C)c1", "CLASS": "false (0)"}
{"MOLECULE": "COc1ccc(COC(C)=O)cc1", "CLASS": "false (0)"}
{"MOLECULE": "Cc1cccc([N+](=O)[O-])c1C(=O)O", "CLASS": "false (0)"}
{"MOLECULE": "CC(=O)CC(=O)Nc1ccc2[nH]c(=O)[nH]c2c1", "CLASS": "false (0)"}
{"MOLECULE": "CCC(C)(Oc1ccc(C2(c3ccc(OC(C)(CC)C(=O)O)cc3)CCCCC2)cc1)C(=O)O (centres undefined)", "CLASS": "false (0)"}
{"MOLECULE": "CCC(=O)/C=C/C1C(C)=CCCC1(C)C (centres undefined)", "CLASS": "false (0)"}
{"MOLECULE": "[Cl][In]([Cl])[Cl]", "CLASS": "false (0)"}
{"MOLECULE": "CC(C)C(=O)c1c(C(C)C)nn2ccccc12", "CLASS": "false (0)"}
{"MOLECULE": "COc1nc(C)nc(Cl)c1NC1=NCCN1", "CLASS": "false (0)"}
{"MOLECULE": "CCCN[C@H]1CCc2nc(N)sc2C1", "CLASS": "false (0)"}
{"MOLECULE": "CCC(C)(C)C(=O)O[C@H]1C[C@@H](C)C=C2C=C[C@H](C)[C@H](CC[C@@H]3C[C@@H](O)CC(=O)O3)[C@H]21", "CLASS": "true (1)"}
{"MOLECULE": "CCOc1ccccc1C(N)=O", "CLASS": "false (0)"}
{"MOLECULE": "O=C1CC2(CCCC2)CC(=O)N1CCCCN1CCN(c2ncccn2)CC1", "CLASS": "true (1)"}
{"MOLECULE": "NC(N)=Nc1nc(CSCC/C(N)=N/S(N)(=O)=O)cs1", "CLASS": "false (0)"}
{"MOLECULE": "O=C(O[C@@H]1Cc2c(O)cc(O)cc2O[C@@H]1c1cc(O)c(O)c(O)c1)c1cc(O)c(O)c(O)c1", "CLASS": "true (1)"}
{"MOLECULE": "Cc1cccc2n[nH]nc12", "CLASS": "false (0)"}
{"MOLECULE": "CC(=O)OCCOCCOCCOC(C)=O", "CLASS": "false (0)"}
